For each record, write down the corresponding fold improvement of ka over 28A6 (parental).
Molecular target: T1, eukaryotically produced human IL-6 (human, UniProt P05231 30-212)
T1 construct: Immobilised on the Biacore chip; also called Euk IL-6; EUK IL-6 (3-1)
Assay: SPR (Biacore), periplasmic Fab
Numeric answer only, unit fold assumed.

Lab note: 55A11 (Fab, V domains shown, Periplasmic Fab; Suffix 'd' of the label not explained; also called 55A11d) VH: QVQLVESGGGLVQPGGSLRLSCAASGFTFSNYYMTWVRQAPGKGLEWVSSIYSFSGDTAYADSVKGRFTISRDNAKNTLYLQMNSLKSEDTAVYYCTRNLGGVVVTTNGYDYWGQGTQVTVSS VL: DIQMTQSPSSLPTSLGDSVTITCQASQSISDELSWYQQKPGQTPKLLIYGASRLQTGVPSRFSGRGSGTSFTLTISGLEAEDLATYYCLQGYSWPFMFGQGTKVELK gave fold improvement of ka over 28A6 (parental) of 0.55

Lab note: 48H1 (Fab, V domains shown, Periplasmic Fab; Suffix 'g2, R4' not explained; also called 48H1g2, R4) VH: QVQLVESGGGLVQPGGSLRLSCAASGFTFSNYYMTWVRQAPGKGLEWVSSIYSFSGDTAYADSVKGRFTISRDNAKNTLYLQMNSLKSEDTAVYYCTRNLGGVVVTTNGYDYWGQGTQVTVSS VL: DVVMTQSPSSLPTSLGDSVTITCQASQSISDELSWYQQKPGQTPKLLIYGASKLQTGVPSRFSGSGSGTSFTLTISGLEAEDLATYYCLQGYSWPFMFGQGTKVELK gave fold improvement of ka over 28A6 (parental) of 0.58

Lab note: 55E10 (Fab, V domains shown, Periplasmic Fab; Suffix 'g1' not explained; also called 55E10g1) VH: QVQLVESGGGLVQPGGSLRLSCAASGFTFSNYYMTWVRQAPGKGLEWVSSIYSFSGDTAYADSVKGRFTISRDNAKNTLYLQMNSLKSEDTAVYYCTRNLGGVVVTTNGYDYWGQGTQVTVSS VL: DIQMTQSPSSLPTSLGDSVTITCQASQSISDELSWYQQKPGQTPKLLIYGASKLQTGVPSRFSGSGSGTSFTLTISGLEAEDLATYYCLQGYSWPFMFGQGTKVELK gave fold improvement of ka over 28A6 (parental) of 0.8

Lab note: 55C11 (Fab, V domains shown, Periplasmic Fab; Suffix 'f' not explained; also called 55C11f) VH: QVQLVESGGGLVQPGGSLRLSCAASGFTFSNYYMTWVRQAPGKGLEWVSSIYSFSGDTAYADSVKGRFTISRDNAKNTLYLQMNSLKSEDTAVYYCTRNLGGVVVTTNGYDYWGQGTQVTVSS VL: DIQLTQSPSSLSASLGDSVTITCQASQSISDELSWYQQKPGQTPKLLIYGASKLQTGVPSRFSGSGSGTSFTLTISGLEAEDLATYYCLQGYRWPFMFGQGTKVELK gave fold improvement of ka over 28A6 (parental) of 1.1
